# assay: solubilities of active compounds in solvents
# Type: physicochemical
# experimental_conditions: solvent propylene carbonate
readout_label: solubility in propylene carbonate

Some entries whose results are on file:
Cc1cc(C2=NOC(c3cc(Cl)cc(Cl)c3)(C(F)(F)F)C2)ccc1C(=O)NCC(=O)NCC(F)(F)F (stereo not drawn) :: 7% (w/w)
O=C(NC1CC1)c1cc(-c2cnn(-c3c(Cl)cc(C(F)(C(F)(F)F)C(F)(F)F)cc3C(F)(F)F)c2)cnc1Cl :: 4% (w/w)
O=C(NC1CC1)c1cc(-c2cnn(-c3c(Cl)cc(C(F)(C(F)(F)F)C(F)(F)F)cc3OC(F)(F)F)c2)cnc1Cl :: 5% (w/w)

Lookup: Returns the measured solubility in propylene carbonate for the input molecule. Input: CON=CNC(=O)c1ccc(C2=NOC(c3cc(Cl)cc(Cl)c3)(C(F)(F)F)C2)cc1C (stereo not drawn) [fluxametamide]
Found: 3% (w/w)

Lookup: Repeat with Cn1nc(C(F)(F)C(F)(F)F)c(C(F)(F)F)c1-n1cc(-c2ccc(Cl)c(C(=O)NC3(C#N)CC3)c2)cn1
Found: 26% (w/w)

Lookup: What would you report for N#Cc1nn(-c2c(Cl)cc(C(F)(F)F)cc2Cl)c(NCc2ccccn2)c1SC(F)F ?
Found: 21% (w/w)

---

# assay: solubilities of active compounds in solvents
# Format: physicochemical
# experimental_conditions: solvent triethyl phosphate
This listing pairs compounds with measured solubility in triethyl phosphate.

# example entries with known answers
N#Cc1nn(-c2c(Cl)cc(C(F)(F)F)cc2Cl)c(NCc2ccccn2)c1SC(F)F [pyriprole] :: 49% (w/w)
Cc1cc(C2=NOC(c3cc(Cl)cc(Cl)c3)(C(F)(F)F)C2)ccc1C(=O)NCC(=O)NCC(F)(F)F (stereo not drawn) [fluralaner] :: 41% (w/w)
CON=CNC(=O)c1ccc(C2=NOC(c3cc(Cl)cc(Cl)c3)(C(F)(F)F)C2)cc1C (stereo not drawn) [fluxametamide] :: 20% (w/w)
O=C(NC1CC1)c1cc(-c2cnn(-c3c(Cl)cc(C(F)(C(F)(F)F)C(F)(F)F)cc3OC(F)(F)F)c2)cnc1Cl [Compound 1] :: 44% (w/w)
Cn1nc(C(F)(F)C(F)(F)F)c(C(F)(F)F)c1-n1cc(-c2ccc(Cl)c(C(=O)NC3(C#N)CC3)c2)cn1 [tigolaner] :: 52% (w/w)

Turning now to a further record.
Lookup: Returns the measured solubility in triethyl phosphate for the input compound. Input: O=C(NC1CC1)c1cc(-c2cnn(-c3c(Cl)cc(C(F)(C(F)(F)F)C(F)(F)F)cc3C(F)(F)F)c2)cnc1Cl [Compound 2]
Found: 40% (w/w)

---

# assay: solubilities of active compounds in solvents
# Format: physicochemical
# experimental_conditions: solvent 83.3% propylene carbonate 16.7% benzyl alcohol
Overview of reported solubility in 83.3% propylene carbonate 16.7% benzyl alcohol across a group of molecules:

Cn1nc(C(F)(F)C(F)(F)F)c(C(F)(F)F)c1-n1cc(-c2ccc(Cl)c(C(=O)NC3(C#N)CC3)c2)cn1 :: 20% (w/w)
O=C(NC1CC1)c1cc(-c2cnn(-c3c(Cl)cc(C(F)(C(F)(F)F)C(F)(F)F)cc3C(F)(F)F)c2)cnc1Cl :: 14% (w/w)
CON=CNC(=O)c1ccc(C2=NOC(c3cc(Cl)cc(Cl)c3)(C(F)(F)F)C2)cc1C (stereo not drawn) [fluxametamide] :: 6% (w/w)
O=C(NC1CC1)c1cc(-c2cnn(-c3c(Cl)cc(C(F)(C(F)(F)F)C(F)(F)F)cc3OC(F)(F)F)c2)cnc1Cl :: 17% (w/w)
N#Cc1nn(-c2c(Cl)cc(C(F)(F)F)cc2Cl)c(NCc2ccccn2)c1SC(F)F :: 28% (w/w)

Lookup: solubility in 83.3% propylene carbonate 16.7% benzyl alcohol lookup needed for Cc1cc(C2=NOC(c3cc(Cl)cc(Cl)c3)(C(F)(F)F)C2)ccc1C(=O)NCC(=O)NCC(F)(F)F (stereo not drawn) , thanks.
Found: 13% (w/w)
